Origin of the recorded values: ChEMBL document CHEMBL5291721

List of AC50 tested on Cholecystokinin receptor type A (Homo sapiens, UniProt P32238). Note: assay procedure not described here.
Sequence (P32238 whole entry): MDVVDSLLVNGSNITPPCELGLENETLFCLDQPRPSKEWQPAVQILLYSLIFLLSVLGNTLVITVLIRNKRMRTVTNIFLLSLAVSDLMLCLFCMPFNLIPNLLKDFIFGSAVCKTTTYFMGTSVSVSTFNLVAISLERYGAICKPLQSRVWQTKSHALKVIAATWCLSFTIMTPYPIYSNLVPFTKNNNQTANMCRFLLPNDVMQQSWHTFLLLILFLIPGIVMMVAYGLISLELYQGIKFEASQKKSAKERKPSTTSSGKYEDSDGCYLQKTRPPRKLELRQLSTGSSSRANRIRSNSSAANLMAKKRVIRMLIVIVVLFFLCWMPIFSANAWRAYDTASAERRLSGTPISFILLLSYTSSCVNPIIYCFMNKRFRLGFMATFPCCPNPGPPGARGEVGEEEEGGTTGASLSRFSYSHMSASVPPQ

[
  {
    "molecule": "NNC(=O)c1ccncc1",
    "AC50": "> 30 µM"
  }
]

Give one value of AC50 per listed molecule.
1. Cc1ccccc1N1C(=O)c2cc(S(N)(=O)=O)c(Cl)cc2NC1C (stereo not given)
2. C/C=C(/C(=C/C)c1ccc(O)cc1)c1ccc(O)cc1
3. O=C1Nc2ccc(Cl)cc2C(c2ccccc2Cl)=NC1O (stereo not given)
4. OC[C@H]1O[C@@H](Oc2cc(O)cc(/C=C/c3ccc(O)cc3)c2)[C@H](O)[C@@H](O)[C@@H]1O

**Result**
1: > 10 µM; 2: > 10 µM; 3: > 30 µM; 4: > 30 µM

---

List of AC50 tested on Type-1 angiotensin II receptor (Homo sapiens, UniProt P30556). Note: assay procedure not described here.
Sequence (P30556 whole entry): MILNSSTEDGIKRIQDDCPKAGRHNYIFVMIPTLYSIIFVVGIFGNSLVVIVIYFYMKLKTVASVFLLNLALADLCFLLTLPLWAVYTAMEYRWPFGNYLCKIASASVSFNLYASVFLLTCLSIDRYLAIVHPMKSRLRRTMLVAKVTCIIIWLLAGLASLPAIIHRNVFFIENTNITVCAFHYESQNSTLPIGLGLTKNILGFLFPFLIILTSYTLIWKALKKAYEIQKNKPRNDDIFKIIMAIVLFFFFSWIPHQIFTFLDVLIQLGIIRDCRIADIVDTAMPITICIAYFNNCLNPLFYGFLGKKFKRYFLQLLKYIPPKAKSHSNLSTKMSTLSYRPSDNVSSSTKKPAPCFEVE

[
  {
    "compound": "NS(=O)(=O)c1cc2c(cc1Cl)N=C(CSCc1ccccc1)NS2(=O)=O [BENZTHIAZIDE]",
    "assay.target": "Type-1 angiotensin II receptor (Homo sapiens, UniProt P30556)",
    "reported": "> 10 µM"
  },
  {
    "compound": "CC(=O)[C@H]1CC[C@H]2[C@@H]3C[C@H](C)C4=CC(=O)CC[C@]4(C)[C@H]3[C@@H](O)C[C@]12C [MEDRYSONE]",
    "assay.target": "Type-1 angiotensin II receptor (Homo sapiens, UniProt P30556)",
    "reported": "> 10 µM"
  },
  {
    "compound": "CCC1(c2ccc(N)cc2)CCC(=O)NC1=O (stereo not drawn) [AMINOGLUTETHIMIDE]",
    "assay.target": "Type-1 angiotensin II receptor (Homo sapiens, UniProt P30556)",
    "reported": "> 30 µM"
  },
  {
    "compound": "CO/N=C(\\C(=O)N[C@@H]1C(=O)N2C(C(=O)O)=C(CSc3nc(=O)c(=O)[nH]n3C)CS[C@H]12)c1csc(N)n1 [CEFTRIAXONE]",
    "assay.target": "Type-1 angiotensin II receptor (Homo sapiens, UniProt P30556)",
    "reported": "> 30 µM"
  },
  {
    "compound": "C[N+]12CCC(CC1)C(OC(=O)C(O)(c1ccccc1)c1ccccc1)C2 (stereo not drawn)",
    "assay.target": "Type-1 angiotensin II receptor (Homo sapiens, UniProt P30556)",
    "reported": "> 30 µM"
  }
]

Give one value of AC50 per listed compound.
1. CC(C(=O)O)c1ccc2c(c1)CC(=O)c1ccccc1S2 (stereo not drawn) [ZALTOPROFEN]
2. CCC(=O)O[C@]1(C(=O)CCl)[C@@H](C)C[C@H]2[C@@H]3CCC4=CC(=O)C=C[C@]4(C)[C@@]3(F)[C@@H](O)C[C@@]21C [CLOBETASOL PROPIONATE]
3. O=C(O)Cc1ccccc1Oc1ccc(Cl)cc1Cl [FENCLOFENAC]

**Result**
> 30 µM
> 30 µM
> 30 µM

---

# assay.target: Thromboxane A2 receptor (Homo sapiens, UniProt P21731); note: assay procedure not described here
# Sequence (P21731 whole entry): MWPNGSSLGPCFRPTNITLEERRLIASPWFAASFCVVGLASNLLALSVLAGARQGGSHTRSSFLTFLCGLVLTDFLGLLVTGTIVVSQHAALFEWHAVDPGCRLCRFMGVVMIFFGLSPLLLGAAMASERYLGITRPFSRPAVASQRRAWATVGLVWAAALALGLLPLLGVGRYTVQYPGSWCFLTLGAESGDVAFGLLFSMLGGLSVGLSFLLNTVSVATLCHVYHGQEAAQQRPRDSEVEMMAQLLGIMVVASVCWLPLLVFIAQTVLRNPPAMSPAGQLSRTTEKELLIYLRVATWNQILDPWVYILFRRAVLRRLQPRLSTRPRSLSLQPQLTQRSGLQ
# Assay type: functional, cell-based
I'd appreciate it if you could supply AC50 values for the items below.

[
  {
    "compound": "COc1c2occc2c(OC)c2c(=O)cc(C)oc12",
    "metric": "AC50",
    "reported": "> 30 µM"
  },
  {
    "compound": "COC(=O)[C@@H](N)Cc1ccc(O)c(O)c1",
    "metric": "AC50",
    "reported": "> 30 µM"
  }
]

Give one value of AC50 per listed compound.
1. C[Se]CC[C@H](N)C(=O)O
2. c1ccc2c(SC3=NCCN3)c[nH]c2c1
3. CCCn1cnc2c1c(=O)n(CCCCC(C)=O)c(=O)n2C
4. C=N[C@@H](C(=O)N[C@@H]1C(=O)N2[C@@H]1SC(C)(C)[C@@H]2C(=O)O)c1ccccc1
5. CC(C)(C)NC(=O)N[C@H](C(=O)N1C[C@H]2[C@@H]([C@H]1C(=O)NC(CC1CCC1)C(=O)C(N)=O)C2(C)C)C(C)(C)C (some centres not stated)
6. CC(C)NC(=N)NC(=N)Nc1ccc(Cl)c(Cl)c1
7. CN(C)c1ccc(O)c2c1C[C@H]1C[C@H]3[C@H](N(C)C)C(O)=C(C(N)=O)C(=O)[C@@]3(O)C(O)=C1C2=O

**Result**
1: > 30 µM; 2: > 30 µM; 3: > 30 µM; 4: > 30 µM; 5: > 30 µM; 6: > 10 µM; 7: > 30 µM

---

# assay.target: Muscarinic acetylcholine receptor M3 (Homo sapiens, UniProt P20309); note: assay procedure not described here
# Sequence (P20309 whole entry): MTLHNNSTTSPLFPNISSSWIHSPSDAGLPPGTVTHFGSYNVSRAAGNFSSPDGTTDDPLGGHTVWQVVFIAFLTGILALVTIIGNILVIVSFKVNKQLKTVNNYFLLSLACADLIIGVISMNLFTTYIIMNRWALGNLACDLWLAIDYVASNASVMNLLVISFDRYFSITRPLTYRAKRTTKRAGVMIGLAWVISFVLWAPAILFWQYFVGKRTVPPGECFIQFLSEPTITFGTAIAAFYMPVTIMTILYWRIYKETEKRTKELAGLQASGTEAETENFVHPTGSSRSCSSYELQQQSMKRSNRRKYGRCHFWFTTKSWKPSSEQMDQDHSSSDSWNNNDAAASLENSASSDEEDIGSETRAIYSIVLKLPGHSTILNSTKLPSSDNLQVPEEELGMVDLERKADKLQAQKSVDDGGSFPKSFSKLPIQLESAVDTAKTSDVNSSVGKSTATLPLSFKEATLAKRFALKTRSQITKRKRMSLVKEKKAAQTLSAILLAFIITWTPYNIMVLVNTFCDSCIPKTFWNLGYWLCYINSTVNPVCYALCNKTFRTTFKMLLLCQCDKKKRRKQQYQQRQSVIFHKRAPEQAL
metric: AC50

The examples below pair each entry with its known result.
[
  {
    "compound": "Clc1ccc(Cn2c(CN3CCCC3)nc3ccccc32)cc1",
    "reported": "> 30 µM"
  },
  {
    "compound": "O=C1Cc2cc(CCN3CCN(c4nsc5ccccc45)CC3)c(Cl)cc2N1",
    "reported": "> 10 µM"
  },
  {
    "compound": "CC(C(=O)O)c1ccc2c(c1)CC(=O)c1ccccc1S2 (stereo not given)",
    "reported": "> 30 µM"
  },
  {
    "compound": "CC(C)N(CCCCOCC(=O)O)c1cnc(-c2ccccc2)c(-c2ccccc2)n1",
    "reported": "> 30 µM"
  },
  {
    "compound": "S=P(N1CC1)(N1CC1)N1CC1",
    "reported": "9.3 µM"
  }
]

Give one value of AC50 per listed compound.
1. NS(=O)(=O)c1cc2c(cc1Cl)N=C(CSCc1ccccc1)NS2(=O)=O [BENZTHIAZIDE]
2. CCOc1cc([C@@H](CS(C)(=O)=O)N2C(=O)c3cccc(NC(C)=O)c3C2=O)ccc1OC
3. CCCCOc1ccc(C(=O)CCN2CCCCC2)cc1
4. CC1=C(/C=C/C(C)=C/C=C/C(C)=C/CO)C(C)(C)CCC1
5. CCN1CCCC1CNC(=O)c1cc(S(=O)(=O)CC)ccc1OC (stereo not given) [SULTOPRIDE]

**Result**
["> 30 µM", "> 30 µM", "> 10 µM", "> 30 µM", "> 30 µM"]

---

List of AC50 tested on Sodium-dependent serotonin transporter (Homo sapiens, UniProt P31645). Note: assay procedure not described here.
Sequence (P31645 whole entry): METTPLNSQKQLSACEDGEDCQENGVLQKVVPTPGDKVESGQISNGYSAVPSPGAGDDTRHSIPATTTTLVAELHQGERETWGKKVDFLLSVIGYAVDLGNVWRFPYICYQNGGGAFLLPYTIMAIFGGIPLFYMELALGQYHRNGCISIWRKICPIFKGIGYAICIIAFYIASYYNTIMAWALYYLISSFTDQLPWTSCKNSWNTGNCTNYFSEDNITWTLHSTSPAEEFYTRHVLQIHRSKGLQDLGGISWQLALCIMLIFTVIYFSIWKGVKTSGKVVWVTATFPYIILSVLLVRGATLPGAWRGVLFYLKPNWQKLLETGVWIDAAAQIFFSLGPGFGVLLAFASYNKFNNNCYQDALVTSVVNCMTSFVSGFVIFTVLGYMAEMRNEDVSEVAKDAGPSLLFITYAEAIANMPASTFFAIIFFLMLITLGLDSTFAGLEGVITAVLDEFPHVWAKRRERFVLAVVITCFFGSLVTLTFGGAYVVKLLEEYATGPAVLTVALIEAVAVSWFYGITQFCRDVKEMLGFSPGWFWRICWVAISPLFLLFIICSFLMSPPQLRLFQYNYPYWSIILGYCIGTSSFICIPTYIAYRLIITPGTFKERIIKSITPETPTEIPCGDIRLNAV

The examples below pair each entry with its known result.
[
  {
    "molecule": "O=C(NNCS(=O)(=O)O)c1ccncc1 [METHANIAZIDE]",
    "assay.target": "Sodium-dependent serotonin transporter (Homo sapiens, UniProt P31645)",
    "AC50": "> 30 µM"
  },
  {
    "molecule": "COc1ccc(OC)c(C(O)C(C)N)c1 (configuration not stated)",
    "assay.target": "Sodium-dependent serotonin transporter (Homo sapiens, UniProt P31645)",
    "AC50": "> 30 µM"
  },
  {
    "molecule": "CCNC(=O)/C=C(C)/C=C/C=C(C)/C=C/c1c(C)cc(OC)c(C)c1C [MOTRETINIDE]",
    "assay.target": "Sodium-dependent serotonin transporter (Homo sapiens, UniProt P31645)",
    "AC50": "28.3 µM"
  }
]

Give one value of AC50 per listed molecule.
1. CC[C@H]1OC(=O)[C@H](C)[C@@H](O[C@H]2C[C@@](C)(OC)[C@@H](O)[C@H](C)O2)[C@H](C)[C@@H](O[C@@H]2O[C@H](C)C[C@H](N(C)C)[C@H]2O)[C@](C)(O)C[C@@H](C)[C@@H]2N[C@@H](COCCOC)O[C@H]([C@H]2C)[C@]1(C)O
2. NC(=O)[C@@H]1CC[C@@H]2CN1C(=O)N2OS(=O)(=O)O
3. c1ccc2c(SC3=NCCN3)c[nH]c2c1
4. CCCCC(CC)CN1CN(CC(CC)CCCC)CC(C)(N)C1 (configuration not stated)

**Result**
> 30 µM
> 30 µM
> 30 µM
6.51 µM

---

List of AC50 tested on UniProtKB Q01959.
Sequence (Q01959 whole entry): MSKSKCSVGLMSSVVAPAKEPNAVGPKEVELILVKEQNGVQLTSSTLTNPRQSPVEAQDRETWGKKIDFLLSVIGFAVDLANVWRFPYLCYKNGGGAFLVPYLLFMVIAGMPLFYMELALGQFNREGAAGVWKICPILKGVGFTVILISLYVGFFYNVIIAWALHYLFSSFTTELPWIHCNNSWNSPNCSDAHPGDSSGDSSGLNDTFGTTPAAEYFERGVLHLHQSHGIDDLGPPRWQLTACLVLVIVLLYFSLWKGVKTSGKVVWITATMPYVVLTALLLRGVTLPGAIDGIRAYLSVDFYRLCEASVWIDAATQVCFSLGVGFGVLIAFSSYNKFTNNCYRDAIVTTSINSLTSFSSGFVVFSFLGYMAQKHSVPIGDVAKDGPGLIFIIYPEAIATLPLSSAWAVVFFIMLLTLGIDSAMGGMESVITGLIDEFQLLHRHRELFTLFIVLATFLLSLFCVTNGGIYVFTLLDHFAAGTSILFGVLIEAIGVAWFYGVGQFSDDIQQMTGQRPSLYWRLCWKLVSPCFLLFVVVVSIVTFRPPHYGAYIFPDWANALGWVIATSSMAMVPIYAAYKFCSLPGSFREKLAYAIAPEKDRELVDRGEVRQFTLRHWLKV

The examples below pair each entry with its known result.
[
  {
    "molecule": "COC(=O)[C@H]1[C@H]2C[C@@H]3c4[nH]c5cc(OC)ccc5c4CCN3C[C@H]2C[C@@H](OC(=O)c2cc(OC)c(OC)c(OC)c2)[C@@H]1OC [RESERPINE]",
    "AC50": "29.3 µM"
  },
  {
    "molecule": "Cc1ccc(C)c(OCCCC(C)(C)C(=O)O)c1 [GEMFIBROZIL]",
    "AC50": "> 30 µM"
  },
  {
    "molecule": "CCNC(=O)/C=C(C)/C=C/C=C(C)/C=C/c1c(C)cc(OC)c(C)c1C [MOTRETINIDE]",
    "AC50": "> 10 µM"
  },
  {
    "molecule": "CN1CCCN(C(c2ccccc2)c2ccc(Cl)cc2)CC1 (stereo not drawn) [HOMOCHLORCYCLIZINE]",
    "AC50": "0.229 µM"
  },
  {
    "molecule": "CC(=O)OC[C@H]1O[C@@H](n2ncc(=O)[nH]c2=O)[C@H](OC(C)=O)[C@@H]1OC(C)=O [AZARIBINE]",
    "AC50": "> 30 µM"
  },
  {
    "molecule": "COC(=O)[C@@H](N)Cc1ccc(O)c(O)c1 [MELEVODOPA]",
    "AC50": "> 30 µM"
  }
]

Give one value of AC50 per listed molecule.
1. O=C(CCC/C=C\C[C@@H]1[C@@H](CC[C@@H](O)CCc2ccccc2)[C@H](O)C[C@@H]1O)OCCCCO[N+](=O)[O-] [LATANOPROSTENE BUNOD]
2. CCCCC1C(=O)N(c2ccccc2)N(c2ccc(O)cc2)C1=O (stereo not drawn) [OXYPHENBUTAZONE ANHYDROUS]
3. CC(CN1c2ccccc2Sc2ccccc21)N(C)C (stereo not drawn) [PROMETHAZINE]
4. O=C(NNCS(=O)(=O)O)c1ccncc1 [METHANIAZIDE]

**Result**
1. > 30 µM
2. > 30 µM
3. > 30 µM
4. > 30 µM

Give one value of AC50 per listed molecule.
1. Nc1cccc2c1C(=O)N(C1CCC(=O)NC1=O)C2=O (stereo not drawn) [POMALIDOMIDE]
2. COc1cc(C(C)=O)ccc1OCCCN1CCC(c2noc3cc(F)ccc23)CC1 [ILOPERIDONE]
3. Cc1ccc(S(=O)(=O)NC(=O)NC2CCCCC2)cc1 [GLYCYCLAMIDE]
4. O=C(O)[C@@H]1C[C@@H](O)CN1

**Result**
["> 30 µM", "5.94 µM", "> 30 µM", "> 30 µM"]

Give one value of AC50 per listed molecule.
1. O=C(O)CN(CCN(CC(=O)O)CC(=O)O)CCN(CC(=O)O)CC(=O)O [PENTETIC ACID]
2. Cc1ncc2c(c1O)COC2c1ccc(Cl)cc1 (stereo not drawn) [CICLETANINE]
3. CCN(CC)CCCC(C)Nc1c2ccc(Cl)cc2nc2ccc(OC)cc12 (stereo not drawn) [QUINACRINE]

**Result**
6.51 µM
> 30 µM
18.4 µM

**Query** AC50 for CC(=O)[C@H]1CC[C@H]2[C@@H]3C=CC4=CC(=O)CC[C@@]4(C)[C@@H]3CC[C@]12C [DYDROGESTERONE] ?
**Result** > 30 µM
